Sourced from ChEMBL document CHEMBL2311326

Tested on: Staphylococcus aureus
Test: Antimicrobial activity against methicillin-resistant Staphylococcus aureus
Type: functional

# smiles, value operator, MIC, µg/mL
rows = [
    ("CCOC(=O)c1ccccc1SN1C(=O)C(=O)c2cc(Br)cc(Br)c21", "=", 25),
    ("O=C1C(=O)N(Sc2ccccc2[N+](=O)[O-])c2ccccc21", "=", 25),
    ("COC(=O)CC[C@H](NSc1ccc([N+](=O)[O-])cc1)C(=O)OC", "=", 1.56),
    ("COC(=O)c1ccccc1SN1C(=O)C(=O)c2cccc(Cl)c21", "=", 12.5),
    ("COC(=O)[C@H](Cc1c[nH]c2ccccc12)NSc1ccccc1", "=", 50),
    ("O=C1C(=O)N(Sc2ccccc2[N+](=O)[O-])c2c(Cl)cccc21", "=", 6.25),
    ("CC(C)OC(=O)[C@H](Cc1c[nH]c2ccccc12)NSc1ccccc1[N+](=O)[O-]", "=", 3.13),
    ("CCOC(=O)[C@H](Cc1c[nH]c2ccccc12)NSc1ccccc1", "=", 25),
    ("CC(C)OC(=O)CC[C@H](NSc1ccc([N+](=O)[O-])cc1[N+](=O)[O-])C(=O)OC(C)C", ">", 100),
    ("O=C1C(=O)N(Sc2ccc([N+](=O)[O-])cc2[N+](=O)[O-])c2ccccc21", ">", 100),
]
